cytotoxicity at 70.5 h listing for selected molecules.
test: Human HepG2 cell viability assay in 384 well format; type: toxicity, cell-based; parameters: dose 125 nL, time 70.5 hour; concentration not given beside the values; conditions: HepG2 cells, read-out: Inhibition
Reply numerically in %, unit not repeated.

Worked cases, cytotoxicity at 70.5 h given:
CC1CCCCN1C(=O)COc1nc(Cc2ccc(F)cc2)no1 (stereo unspecified) : -6.78
Cc1ccc(NS(=O)(=O)c2ccc(C#N)cc2)c(CN(C)C)c1 : -3.45
CC(C)c1nn(C)c(N2CCOCC2)c1CNC(C)c1ccco1 (stereo unspecified) : -2.73
Cc1nn(C)c2ncnc(NCC(O)CN3CCCCC3)c12 (stereo unspecified) : 21.5
COc1ccc(CN2CCCCCC2c2cccs2)c(O)c1 (stereo unspecified) : -7.17
CCc1noc(C(C)Sc2nnc(C3CC3)n2CC(N)=O)n1 (stereo unspecified) : -0.541
COCC(=O)N1C[C@H]2CNC[C@@]2(C(=O)NCc2nc(C)cc(C)n2)C1 : -7.28
O=c1[nH]cnc2c1CCN(S(=O)(=O)c1ccc(Cl)cc1)C2 : -11.8

Quick one: cytotoxicity at 70.5 h of CCc1noc(CN2CCN(CCO)CC2)n1 ?
-1.62

And for O=C(Cc1ccccc1)C1CCCN(Cc2cncn2C2CCCC2)C1 (stereo unspecified) ?
-7.77

Consider next the molecule O=C(NCCc1cc(F)ccc1F)NC(CO)c1ccccc1 (stereo unspecified) in the same way.
19.3

====

test: Human HepG2 cell viability assay in 384 well format; format: toxicity, cell-based; design: dose 125 nL, time 70.5 hour; concentration not given beside the values; conditions: HepG2 cells, read-out: Inhibition
Each record here notes measured cytotoxicity at 70.5 h.
The response must be a number in % with no trailing unit.

CS(=O)(=O)N1CCC[C@H]1c1ncnn1-c1ccc2c(c1)OCO2 : -1.95

Now look at this one.
Give the measured cytotoxicity at 70.5 h of CCOCc1cc(CN2CCn3c(CO)nnc3C2)ccc1OC .
1.27

====

Measured cytotoxicity at 70.5 h, listed per entry for reference.
assay: Human HepG2 cell viability assay in 384 well format; type: toxicity, cell-based; design: dose 125 nL, time 70.5 hour; concentration not given beside the values; conditions: HepG2 cells, read-out: Inhibition
Answer with a number only, understood to be in %.

Below, 5 molecules whose answers are already recorded.
Cc1cc(NC(=O)CN2CCN(c3nccs3)C(C)C2)n(C)n1 (configuration not stated) : -7.64
CC(=O)NCCCNCc1c(C)nn(CC(C)C)c1N(C)C : -5.4
CC(C)CN1C(=O)C2(CCCC2)NC12CCSCC2 : 0.871
Cc1cc(C)nc(C2CCCN2C(=O)c2coc(C)n2)n1 (configuration not stated) : 23
O=C(O)c1cc(-c2ccoc2)cc(S(=O)(=O)NCc2ccccn2)c1 : -8.18

What cytotoxicity at 70.5 h value was documented for this molecule, CC(C)n1nc(CNc2ncccn2)c2c1CN(S(C)(=O)=O)CC2 ?
10.7

Please give the result for CC(C)Nc1nc2c(c(NC3CC3)n1)CCN(C(=O)C1CCOC1)CC2 (configuration not stated) too.
1.81

====

Documented cytotoxicity at 70.5 h across a set of compounds
assay: Human HepG2 cell viability assay in 384 well format; format: toxicity, cell-based; design: dose 125 nL, time 70.5 hour; concentration not given beside the values; details: HepG2 cells, read-out: Inhibition
Write it as a number; the unit % goes unstated.

As a guide, the following entries are already answered.
c1cc(NCc2ccncc2)nc(C2CCCNC2)c1 (stereo not given) : -1.2
CC1CCCN1Cc1cccc(C(=O)Nc2ccc3c(c2)CCC3=O)c1 (stereo not given) : 5.96
CCc1nnc2sc(-c3cc(C(C)C)n[nH]3)nn12 : -1.02
CN1C(=O)CCC12CCCN(C(=O)c1ccoc1)C2 (stereo not given) : -1.96
O=C(O)c1ccccc1CN1CCC(c2ccnc3ccnn23)CC1 : -4.52
COc1ccc(Cn2cc(C(C)O)nn2)cc1 (stereo not given) : 20.2
Cc1ccccc1CCC(=O)N1CCc2ncnc(NCCO)c2CC1 : -0.133
Cc1ccc2c(n1)N(CC(C)C)CCN(S(C)(=O)=O)C2 : -6.3
CC(C)Cn1ccnc1CNC(=O)N1CCCC1CN1CCOCC1 (stereo not given) : -4.49
Cc1cc(C)c(CNC(=O)NCC2CCCO2)c(=O)[nH]1 (stereo not given) : 26.7

Fill in: cytotoxicity at 70.5 h of COCCCN(Cc1cnc(N2CCCC2)nc1)C1CCN(C)CC1 is ___
-20.3

What would you report for COCc1cnc2n1CCN(C(=O)c1cc3ccccc3o1)C2C (stereo not given) ?
18.8
